The measurements presented in this section are drawn from patent US12528815B2.

Provide the recorded Ki for the entries that follow.
# ASSAY_TARGET: human adenosine A1 receptor (Homo sapiens, UniProt P30542)
# Construct: expressed in transfected cells; host or cells: HEK293 cells infected with BacMam (the same paragraph also labels the preparation CHO-hA1)
# Sequence (P30542 1-326): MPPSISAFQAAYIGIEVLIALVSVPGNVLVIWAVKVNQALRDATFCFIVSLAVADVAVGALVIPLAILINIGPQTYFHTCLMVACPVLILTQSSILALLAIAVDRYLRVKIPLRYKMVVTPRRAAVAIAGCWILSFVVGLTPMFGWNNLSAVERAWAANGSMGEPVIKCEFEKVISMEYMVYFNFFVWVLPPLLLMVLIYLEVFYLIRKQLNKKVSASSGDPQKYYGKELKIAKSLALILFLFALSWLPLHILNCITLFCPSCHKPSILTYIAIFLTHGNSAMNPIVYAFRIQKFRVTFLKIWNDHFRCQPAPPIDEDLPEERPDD
# EXPERIMENTAL_DETAILS: Inhibition binding assay, human adenosine A1 receptor membranes, [3H]DPCPX
# EXPERIMENTAL_SETUP: 1 nM [3H]DPCPX, 25° C., 1 h; IC50 converted to Ki with Cheng-Prusoff; read-out: A1 pKi (converted)
# Procedure: Inhibition binding assays were performed using 0.2 μg of membranes prepared from HEK293 cells infected with BacMam human adenosine A2A receptor or 1.4 μg of membranes prepared from HEK293 cells infected with BacMam human adenosine A1 receptor. […] Bound radioactivity was determined by liquid scintillation counting and inhibition curves were analysed using a four-parameter logistic equation. […]

Report Ki from human adenosine A1 receptor (Homo sapiens, UniProt P30542) testing of COc1cc(-c2c(-c3ccc(F)cc3)nc(N)n3c(=O)n(CCC(F)(F)F)nc23)cc(CO)n1 [Example 2-47]
> 3.98 µM

Please tell me the measured Ki for C/C=C(\C)c1nc(N)n2c(=O)n(CCC(F)(F)F)nc2c1-c1cc(C)nc(C)c1 [Example 3-10] ; system: human adenosine A1 receptor (Homo sapiens, UniProt P30542).
> 3.16 µM

Give reported Ki for Cc1cc(-c2c(-c3ccccc3)nc(N)n3c(=O)n(Cc4ccc(F)cn4)nc23)cc(O)n1 [Example 1-74] (human adenosine A1 receptor (Homo sapiens, UniProt P30542))
> 3.16 µM

Print human adenosine A1 receptor (Homo sapiens, UniProt P30542) Ki for Cc1cc(-c2c(-c3ccccc3)nc(N)n3c(=O)n(CCc4ccc(C(=O)O)cc4)nc23)cc(C)n1 [Example 1-85] .
> 3.98 µM

Report value: Ki, system: human adenosine A1 receptor (Homo sapiens, UniProt P30542), molecule: Cc1cc(-c2c(-c3ccccc3)nc(N)n3c(=O)n(Cc4cccnn4)nc23)cc(C)n1 [Example 1-5]
0.251 µM

Find Ki for Cc1cc(-c2c(-c3ccc(F)cc3)nc(N)n3c(=O)n(CCN4CCCCC4)nc23)cc(Cl)n1 [Example 2-105] on human adenosine A1 receptor (Homo sapiens, UniProt P30542) and write it down.
> 2.51 µM

Retrieve Ki on human adenosine A1 receptor (Homo sapiens, UniProt P30542); query CCN(C)c1nc(N)n2c(=O)n(CCC(F)(F)F)nc2c1-c1cc(C)nc(C)c1 [Example 3-4]
> 3.16 µM
